Origin of the recorded values: ChEMBL document CHEMBL1961873

Reported inhibition values are given for each entry in this list.
molecular target: Serine/threonine-protein kinase PAK 3 (Homo sapiens) (UniProt O75914); details: at 1 µM;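 note: reported percentage is a mean inhibition value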
Sequence (O75914 whole entry, looked up): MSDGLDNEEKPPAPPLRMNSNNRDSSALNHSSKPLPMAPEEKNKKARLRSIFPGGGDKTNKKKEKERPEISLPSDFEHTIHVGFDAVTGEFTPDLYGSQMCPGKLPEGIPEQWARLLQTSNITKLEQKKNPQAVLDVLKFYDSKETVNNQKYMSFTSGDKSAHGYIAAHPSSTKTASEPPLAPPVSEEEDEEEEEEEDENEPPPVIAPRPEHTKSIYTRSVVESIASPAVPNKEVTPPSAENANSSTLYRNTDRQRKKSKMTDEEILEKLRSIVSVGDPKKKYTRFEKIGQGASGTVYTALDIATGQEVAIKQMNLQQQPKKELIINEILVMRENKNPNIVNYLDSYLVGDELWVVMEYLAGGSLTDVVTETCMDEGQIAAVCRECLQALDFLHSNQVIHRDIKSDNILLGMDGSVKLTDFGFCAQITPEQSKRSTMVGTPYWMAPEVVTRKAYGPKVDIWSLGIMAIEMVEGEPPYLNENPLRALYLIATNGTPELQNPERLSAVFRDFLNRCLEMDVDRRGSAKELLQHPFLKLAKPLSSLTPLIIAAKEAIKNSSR
Record the value in %, omitting the unit from your answer.

| compound | system name | inhibition [%] |
| --- | --- | --- |
| COc1ccc(COc2ccc(Cc3cnc(N)nc3N)cc2OC)cc1 | Serine/threonine-protein kinase PAK 3 (Homo sapiens) (UniProt O75914) | 1.06 |

Consider the compound CC(C)=Cc1cccc2c1/C(=N/Nc1ccc(S(N)(=O)=O)cc1)C(=O)N2 and give its measured inhibition.
1.61

Consider the compound CCn1c(-c2nonc2N)nc2ccncc21 and give its measured inhibition.
1.02

###

target: RAC-gamma serine/threonine-protein kinase (Homo sapiens) (UniProt Q9Y243); conditions: at 1 µM
Sequence (Q9Y243 whole entry): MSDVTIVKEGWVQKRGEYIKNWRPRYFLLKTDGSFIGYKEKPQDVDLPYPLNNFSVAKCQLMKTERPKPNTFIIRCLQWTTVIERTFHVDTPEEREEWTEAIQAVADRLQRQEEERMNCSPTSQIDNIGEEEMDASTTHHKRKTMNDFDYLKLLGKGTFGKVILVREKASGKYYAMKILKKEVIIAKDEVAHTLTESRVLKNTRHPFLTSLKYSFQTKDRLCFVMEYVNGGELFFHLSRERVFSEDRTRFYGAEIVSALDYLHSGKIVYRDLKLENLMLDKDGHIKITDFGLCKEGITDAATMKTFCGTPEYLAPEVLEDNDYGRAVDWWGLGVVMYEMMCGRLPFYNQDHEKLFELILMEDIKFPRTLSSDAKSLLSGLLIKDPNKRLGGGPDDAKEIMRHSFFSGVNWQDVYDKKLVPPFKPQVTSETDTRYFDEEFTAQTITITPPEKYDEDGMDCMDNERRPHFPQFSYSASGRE
Description: GSK_PKIS: AKT3 mean inhibition at 1 uM [Nanosyn]
endpoint name: inhibition (%)
Answer with a number only, understood to be in %.

| molecule | measurement units | inhibition |
| --- | --- | --- |
| CC1=C(C(=O)Nc2ccc3[nH]ncc3c2)C(c2ccc(F)cc2)NC(=O)N1 (stereo unspecified) | % | 2.79 |

Fill blank: measured inhibition of the molecule N#Cc1c(NC(=O)c2cccc3ccccc23)sc2c1CCCC2 is ____.
1.85

What value of inhibition has been recorded for this entry: CNC(=O)c1cncc(/C=C/c2c(Cl)cccc2Cl)c1
0.11

So what does the record say about inhibition for NC(=O)c1cccc(Nc2nccc(Nc3cccc4[nH]ncc34)n2)c1 ?
-1.13

Report inhibition for COc1ccc(-c2coc3ncnc(N)c23)cc1 please.
2.05

Look at this molecule and give its reported inhibition. NC(=O)c1ccc(-c2nc(-c3ccccn3)c(-c3ccc4c(c3)OCO4)[nH]2)cc1
0.48

###

target: Fibroblast growth factor receptor 4 (Homo sapiens); conditions: at 0.1 µM;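 note: values are mean percent inhibition of FGFR4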
The entries below are paired with their reported inhibition.
State just the number; it will be interpreted in %.

| molecule | measurement units | inhibition |
| --- | --- | --- |
| Cc1nnc(-c2ccc(C)c(-c3ccc(C(=O)Nc4cccc(C#N)c4)cc3)c2)o1 | % | 2.08 |

// inhibition lookup, key: CCc1cccc(NC(=O)Nc2ccc(Oc3ccc4nc(NC(=O)OC)[nH]c4c3)cc2)c1
4.21

Report inhibition for CC1=C(C(=O)Nc2ccc3[nH]ncc3c2)C(c2ccc(Cl)c(Cl)c2)CC(=O)N1 (centres undefined) please.
1.31

Field request: inhibition | item: CCn1c(-c2nonc2N)nc2c(C#CC(C)(C)O)nc(OC[C@@H](N)c3ccccc3)cc21
2.3

###

test system: Mast/stem cell growth factor receptor Kit (Homo sapiens), P10721 [V560G]; settings: at 1 µM
Sequence (P10721 whole entry V560G): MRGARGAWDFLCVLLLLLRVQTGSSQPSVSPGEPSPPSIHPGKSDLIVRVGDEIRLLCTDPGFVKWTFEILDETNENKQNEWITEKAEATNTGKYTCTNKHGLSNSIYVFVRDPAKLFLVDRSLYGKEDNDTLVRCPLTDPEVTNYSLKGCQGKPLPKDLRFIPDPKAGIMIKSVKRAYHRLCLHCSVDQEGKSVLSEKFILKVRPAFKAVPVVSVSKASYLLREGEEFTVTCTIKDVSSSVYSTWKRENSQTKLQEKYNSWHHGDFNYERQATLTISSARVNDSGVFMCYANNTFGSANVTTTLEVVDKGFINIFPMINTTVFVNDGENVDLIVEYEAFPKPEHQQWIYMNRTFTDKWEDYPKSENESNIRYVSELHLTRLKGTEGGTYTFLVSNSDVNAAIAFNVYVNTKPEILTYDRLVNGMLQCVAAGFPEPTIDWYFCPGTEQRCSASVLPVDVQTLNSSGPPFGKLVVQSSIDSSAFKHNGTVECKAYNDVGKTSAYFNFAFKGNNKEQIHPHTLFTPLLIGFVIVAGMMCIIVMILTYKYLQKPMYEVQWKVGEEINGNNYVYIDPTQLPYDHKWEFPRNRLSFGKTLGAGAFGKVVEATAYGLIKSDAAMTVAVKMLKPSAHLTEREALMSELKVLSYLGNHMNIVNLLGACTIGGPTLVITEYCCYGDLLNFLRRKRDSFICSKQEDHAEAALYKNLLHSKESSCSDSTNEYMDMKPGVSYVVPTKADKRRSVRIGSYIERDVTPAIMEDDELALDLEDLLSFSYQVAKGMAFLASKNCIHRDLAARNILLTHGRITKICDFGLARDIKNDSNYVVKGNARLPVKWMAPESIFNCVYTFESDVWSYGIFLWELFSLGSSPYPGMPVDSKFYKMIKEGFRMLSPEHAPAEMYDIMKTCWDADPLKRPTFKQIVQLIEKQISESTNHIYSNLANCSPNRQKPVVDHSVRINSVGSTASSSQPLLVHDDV
Threshold rule: inhibition greater than or equal to 8% is Yes; below that, No.

| smiles | class name |
| --- | --- |
| COc1cc(C=NNc2ncnc3c2cnn3-c2ccccc2)ccc1O | Yes |

Decide: is the reported value of inhibition for Cc1nnc(-c2ccc(C)c(-c3ccc(C(=O)Nc4cccc(C#N)c4)cc3)c2)o1 equal to or greater than 8%?
No

inhibition >= 8% for Cn1cc(C=C2C(=O)Nc3cccnc32)c2ccccc21 ?
No

Please check the record Cc1nn(C)c2cc(N(C)c3ccnc(Nc4cccc(S(N)(=O)=O)c4)n3)ccc12 and state if its inhibition is at or above 8%.
Yes

###

biological target: Serine/threonine-protein kinase Nek6 (Homo sapiens) (UniProt Q9HC98); conditions: at 1 µM;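 note: values are mean inhibition of NEK6 from the GSK PKIS screen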
Sequence (Q9HC98 whole entry): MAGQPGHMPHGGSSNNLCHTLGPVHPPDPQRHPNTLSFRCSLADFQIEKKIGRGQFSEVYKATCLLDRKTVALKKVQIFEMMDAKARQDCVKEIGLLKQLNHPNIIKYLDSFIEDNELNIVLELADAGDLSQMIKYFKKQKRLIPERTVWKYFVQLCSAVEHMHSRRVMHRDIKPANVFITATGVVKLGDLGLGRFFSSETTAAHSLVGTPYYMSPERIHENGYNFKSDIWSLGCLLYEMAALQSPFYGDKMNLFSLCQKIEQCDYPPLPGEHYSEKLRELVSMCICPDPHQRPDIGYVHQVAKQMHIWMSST
endpoint name: inhibition (%)
Give your result in % as a bare value.

| smiles | system name | measurement units | assay value |
| --- | --- | --- | --- |
| Cc1ccc(C(=O)NC2CCCCC2)cc1-c1ccc(C(=O)NCC2CC2)cc1 | Serine/threonine-protein kinase Nek6 (Homo sapiens) (UniProt Q9HC98) | % | -2.96 |

Request the reported inhibition associated with O=C1NC(=O)C(c2ccc(Cl)cc2)=C1Nc1ccc(Cl)c(C(=O)O)c1
2.37

Give the measured inhibition of c1cnn2ncc(-c3ccnc(Nc4ccc5c(c4)OCCO5)n3)c2c1 .
4.5

inhibition for COc1cc(C)c(NC(=O)CN(C)C)cc1Nc1nc(Nc2cccc(F)c2C(N)=O)c2cc[nH]c2n1 ?
-0.26

Suppose we examine the molecule CCc1cccc(NC(=O)Nc2ccc(Oc3ccc4nc(NC(=O)OC)[nH]c4c3)cc2)c1 ; what inhibition value has been reported?
3.24

Return reported inhibition; argument: NCc1ccc(-c2nc(-c3ccc(Cl)c(O)c3)c(-c3ccncc3)[nH]2)cc1
-1.57
